Tested on: PEO-1
test-method-notes: Excess HSA synergy score (sum over dose matrix of excess over highest single agent) (score (summed % response)); higher = less synergy / more antagonism (negative = synergy)
condition-parameters: 72 h; read-out: viability/apoptosis luminescence (CellTiter-Glo or Caspase3-Glo / not stated per table); matrix design: 6x6, 5-fold dilutions (primary screen)
Counter-ions that a name gives are not always drawn. In all, about 1,500 compounds were measured (“Excess HSA synergy score (sum over dose matrix of excess over highest single agent)”: median about 43, lowest 2% from about -900 on). The list comes from a sample in which the lowest values are over-represented; it also holds close analogues and randomly drawn compounds.
# satisfied = Excess HSA synergy score below -40 (exclusive); not satisfied = Excess HSA synergy score at/above -40

{"compound": "O=C(O)c1ccc(-c2cc3cccnc3c(-c3ccc4nonc4c3)n2)cc1 + CC[C@H](NC(=O)[C@H](C)NC)C(=O)N1C[C@@H](O)C[C@H]1Cc1c(-c2[nH]c3cc(F)ccc3c2C[C@@H]2C[C@H](O)CN2C(=O)[C@H](CC)NC(=O)[C@H](C)NC)[nH]c2cc(F)ccc12 [Birinapant]", "class-assignment": "satisfied"}
{"compound": "O=c1ccn(C2OC(CO)C(O)C2F)c(=O)[nH]1 (configuration not stated) + CC[C@H](NC(=O)[C@H](C)NC)C(=O)N1C[C@@H](O)C[C@H]1Cc1c(-c2[nH]c3cc(F)ccc3c2C[C@@H]2C[C@H](O)CN2C(=O)[C@H](CC)NC(=O)[C@H](C)NC)[nH]c2cc(F)ccc12 [Birinapant]", "class-assignment": "not satisfied"}
{"compound": "CC(/C=C1\\SC(=S)N(CC(=O)O)C1=O)=C\\c1ccccc1 [Epalrestat] + CC[C@H](NC(=O)[C@H](C)NC)C(=O)N1C[C@@H](O)C[C@H]1Cc1c(-c2[nH]c3cc(F)ccc3c2C[C@@H]2C[C@H](O)CN2C(=O)[C@H](CC)NC(=O)[C@H](C)NC)[nH]c2cc(F)ccc12 [Birinapant]", "class-assignment": "not satisfied"}
{"compound": "CCOC(=O)N1c2ccc(C(F)(F)F)cc2[C@@H](N(Cc2cc(C(F)(F)F)cc(C(F)(F)F)c2)C(=O)OC)C[C@H]1CC [Torcetrapib] + CC[C@H](NC(=O)[C@H](C)NC)C(=O)N1C[C@@H](O)C[C@H]1Cc1c(-c2[nH]c3cc(F)ccc3c2C[C@@H]2C[C@H](O)CN2C(=O)[C@H](CC)NC(=O)[C@H](C)NC)[nH]c2cc(F)ccc12 [Birinapant]", "class-assignment": "satisfied"}
{"compound": "COc1ccc(-n2nc(C(N)=O)c3c2C(=O)N(c2ccc(N4CCCCC4=O)cc2)CC3)cc1 [Apixaban] + CC[C@H](NC(=O)[C@H](C)NC)C(=O)N1C[C@@H](O)C[C@H]1Cc1c(-c2[nH]c3cc(F)ccc3c2C[C@@H]2C[C@H](O)CN2C(=O)[C@H](CC)NC(=O)[C@H](C)NC)[nH]c2cc(F)ccc12 [Birinapant]", "class-assignment": "satisfied"}
{"compound": "CC[C@@H]1C(=O)N(C)c2cnc(Nc3ccc(C(=O)N[C@H]4CC[C@H](N5CCN(CC6CC6)CC5)CC4)cc3OC)nc2N1C(C)C [Volasertib] + CC[C@H](NC(=O)[C@H](C)NC)C(=O)N1C[C@@H](O)C[C@H]1Cc1c(-c2[nH]c3cc(F)ccc3c2C[C@@H]2C[C@H](O)CN2C(=O)[C@H](CC)NC(=O)[C@H](C)NC)[nH]c2cc(F)ccc12 [Birinapant]", "class-assignment": "not satisfied"}
{"compound": "CCOc1cc(C(=O)Nc2ccc(Cl)c(-c3nc4ccccc4[nH]3)c2)cc(OCC)c1OCC + CC[C@H](NC(=O)[C@H](C)NC)C(=O)N1C[C@@H](O)C[C@H]1Cc1c(-c2[nH]c3cc(F)ccc3c2C[C@@H]2C[C@H](O)CN2C(=O)[C@H](CC)NC(=O)[C@H](C)NC)[nH]c2cc(F)ccc12 [Birinapant]", "class-assignment": "not satisfied"}
{"compound": "O=c1cc(-c2ccccc2)oc2cc(O)cc(O)c12 [5,7-Dihydroxyflavone] + CC[C@H](NC(=O)[C@H](C)NC)C(=O)N1C[C@@H](O)C[C@H]1Cc1c(-c2[nH]c3cc(F)ccc3c2C[C@@H]2C[C@H](O)CN2C(=O)[C@H](CC)NC(=O)[C@H](C)NC)[nH]c2cc(F)ccc12 [Birinapant]", "class-assignment": "satisfied"}
{"compound": "CN1CCN(c2nc(C3=C(c4c[nH]c5ccccc45)C(=O)NC3=O)c3ccccc3n2)CC1 [Sotrastaurin] + CC[C@H](NC(=O)[C@H](C)NC)C(=O)N1C[C@@H](O)C[C@H]1Cc1c(-c2[nH]c3cc(F)ccc3c2C[C@@H]2C[C@H](O)CN2C(=O)[C@H](CC)NC(=O)[C@H](C)NC)[nH]c2cc(F)ccc12 [Birinapant]", "class-assignment": "not satisfied"}
{"compound": "COc1ccc(/C=C\\c2cc(OC)c(OC)c(OC)c2)cc1NC(=O)[C@@H](N)CO [Ombrabulin] + CC[C@H](NC(=O)[C@H](C)NC)C(=O)N1C[C@@H](O)C[C@H]1Cc1c(-c2[nH]c3cc(F)ccc3c2C[C@@H]2C[C@H](O)CN2C(=O)[C@H](CC)NC(=O)[C@H](C)NC)[nH]c2cc(F)ccc12 [Birinapant]", "class-assignment": "satisfied"}
{"compound": "COc1cccc2c1C(=O)c1c(O)c3c(c(O)c1C2=O)C[C@@](O)(C(=O)CO)C[C@@H]3O[C@H]1C[C@H](N)[C@@H](O)[C@H](C)O1 [Epirubicin hydrochloride] + CC[C@H](NC(=O)[C@H](C)NC)C(=O)N1C[C@@H](O)C[C@H]1Cc1c(-c2[nH]c3cc(F)ccc3c2C[C@@H]2C[C@H](O)CN2C(=O)[C@H](CC)NC(=O)[C@H](C)NC)[nH]c2cc(F)ccc12 [Birinapant]", "class-assignment": "satisfied"}
{"compound": "N#CC(c1ccnc(NCCc2cccnc2)n1)c1nc2ccccc2s1 (configuration not stated) [JNK Inhibitor V] + CC[C@H](NC(=O)[C@H](C)NC)C(=O)N1C[C@@H](O)C[C@H]1Cc1c(-c2[nH]c3cc(F)ccc3c2C[C@@H]2C[C@H](O)CN2C(=O)[C@H](CC)NC(=O)[C@H](C)NC)[nH]c2cc(F)ccc12 [Birinapant]", "class-assignment": "satisfied"}
